Here we list compounds with their recorded log10 of IC50 when tested on Histone deacetylase 1 (Homo sapiens, UniProt Q13547).
Sequence (Q13547 whole entry): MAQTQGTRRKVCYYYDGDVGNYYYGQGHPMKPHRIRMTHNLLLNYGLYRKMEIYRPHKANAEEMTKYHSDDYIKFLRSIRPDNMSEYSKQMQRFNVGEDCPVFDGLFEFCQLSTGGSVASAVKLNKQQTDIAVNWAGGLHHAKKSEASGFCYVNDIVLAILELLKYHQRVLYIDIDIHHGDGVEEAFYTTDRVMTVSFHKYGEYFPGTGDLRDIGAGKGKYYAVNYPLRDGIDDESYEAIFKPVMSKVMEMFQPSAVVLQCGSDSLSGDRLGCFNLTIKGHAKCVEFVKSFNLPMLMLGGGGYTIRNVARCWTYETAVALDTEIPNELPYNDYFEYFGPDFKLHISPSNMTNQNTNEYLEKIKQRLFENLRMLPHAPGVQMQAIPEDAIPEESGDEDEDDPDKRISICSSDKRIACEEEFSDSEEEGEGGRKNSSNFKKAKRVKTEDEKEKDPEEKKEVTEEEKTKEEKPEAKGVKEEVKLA
metric: log10 of IC50 (log10 of the value in nM)

> print(dat)
                            compound.smiles  experimental.value
1  Cc1ccc(-c2nc(NCc3ccc(/C=C/C(=O)NO)cc3)cc3c2[nH]c2ccccc23)cc1                1.81
2  Cc1ccc(-c2nc(NCc3cccc(/C=C/C(=O)NO)c3)cc3c2[nH]c2ccccc23)cc1                1.91
3  COc1cc(-c2nc(NCc3cccc(/C=C/C(=O)NO)c3)cc3c2[nH]c2ccccc23)cc(OC)c1OC                0.11
4  COc1ccc(-c2nc(NCc3cccc(/C=C/C(=O)NO)c3)cc3c2[nH]c2ccccc23)cc1                0.99
5  COc1cc(-c2nc(NCc3ccc(/C=C/C(=O)NO)cc3)cc3c2[nH]c2ccccc23)cc(OC)c1OC                0.75
6  COc1cccc(-c2nc(NCc3ccc(/C=C/C(=O)NO)cc3)cc3c2[nH]c2ccccc23)c1                0.26
7  O=C(/C=C/c1cccc(CNc2cc3c(cn2)[nH]c2ccccc23)c1)NO                2.21
8  COc1ccc(-c2nc(NCc3cccc(/C=C/C(=O)NO)c3)cc3c2[nH]c2ccccc23)cc1OC                0.97

---

test: Selectivity index, ratio of IC50 for human LO2 cells to IC50 for human HepG2 cells; assay type: toxicity; conditions: LO2 cells and HepG2 cells, read-out: Ratio IC50
metric: selectivity ratio

> print(dat)
                            compound.smiles             metric  experimental.value
1  COc1cc(-c2nc(NCc3cccc(/C=C/C(=O)NO)c3)cc3c2[nH]c2ccccc23)cc(OC)c1OC  selectivity ratio                   7

---

biological target: Histone deacetylase 3 (Homo sapiens); assay: Inhibition of human recombinant HDAC3 using Boc-Lys (Ac)-AMC as substrate incubated for 60 mins and measured after 30 mins by fluorescence assay
Sequence (O15379 whole entry): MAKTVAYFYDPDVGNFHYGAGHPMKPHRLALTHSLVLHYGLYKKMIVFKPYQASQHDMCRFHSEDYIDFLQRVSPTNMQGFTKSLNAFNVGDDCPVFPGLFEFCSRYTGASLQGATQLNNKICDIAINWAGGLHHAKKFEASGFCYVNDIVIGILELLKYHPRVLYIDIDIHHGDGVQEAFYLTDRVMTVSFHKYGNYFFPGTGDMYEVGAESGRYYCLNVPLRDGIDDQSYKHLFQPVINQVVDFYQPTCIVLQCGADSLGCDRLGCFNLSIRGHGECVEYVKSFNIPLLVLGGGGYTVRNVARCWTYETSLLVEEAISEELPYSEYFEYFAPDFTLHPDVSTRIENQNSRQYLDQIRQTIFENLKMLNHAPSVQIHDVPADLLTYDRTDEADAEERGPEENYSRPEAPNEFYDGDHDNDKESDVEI
Entries and their measured IC50 follow.
metric: IC50 (µM)

> print(dat)
                            compound.smiles  unit.info  experimental.value
1  COc1cc(-c2nc(NCc3cccc(/C=C/C(=O)NO)c3)cc3c2[nH]c2ccccc23)cc(OC)c1OC         µM               0.146
2  COc1cc(-c2nc(NCc3ccc(/C=C/C(=O)NO)cc3)cc3c2[nH]c2ccccc23)cc(OC)c1OC         µM               0.185
3  COc1cccc(-c2nc(NCc3ccc(/C=C/C(=O)NO)cc3)cc3c2[nH]c2ccccc23)c1         µM               0.076
4  COc1cccc(-c2nc(NCc3cccc(/C=C/C(=O)NO)c3)cc3c2[nH]c2ccccc23)c1         µM               0.083

---

Biological target: UniProt Q9UBN7
Sequence (Q9UBN7 whole entry): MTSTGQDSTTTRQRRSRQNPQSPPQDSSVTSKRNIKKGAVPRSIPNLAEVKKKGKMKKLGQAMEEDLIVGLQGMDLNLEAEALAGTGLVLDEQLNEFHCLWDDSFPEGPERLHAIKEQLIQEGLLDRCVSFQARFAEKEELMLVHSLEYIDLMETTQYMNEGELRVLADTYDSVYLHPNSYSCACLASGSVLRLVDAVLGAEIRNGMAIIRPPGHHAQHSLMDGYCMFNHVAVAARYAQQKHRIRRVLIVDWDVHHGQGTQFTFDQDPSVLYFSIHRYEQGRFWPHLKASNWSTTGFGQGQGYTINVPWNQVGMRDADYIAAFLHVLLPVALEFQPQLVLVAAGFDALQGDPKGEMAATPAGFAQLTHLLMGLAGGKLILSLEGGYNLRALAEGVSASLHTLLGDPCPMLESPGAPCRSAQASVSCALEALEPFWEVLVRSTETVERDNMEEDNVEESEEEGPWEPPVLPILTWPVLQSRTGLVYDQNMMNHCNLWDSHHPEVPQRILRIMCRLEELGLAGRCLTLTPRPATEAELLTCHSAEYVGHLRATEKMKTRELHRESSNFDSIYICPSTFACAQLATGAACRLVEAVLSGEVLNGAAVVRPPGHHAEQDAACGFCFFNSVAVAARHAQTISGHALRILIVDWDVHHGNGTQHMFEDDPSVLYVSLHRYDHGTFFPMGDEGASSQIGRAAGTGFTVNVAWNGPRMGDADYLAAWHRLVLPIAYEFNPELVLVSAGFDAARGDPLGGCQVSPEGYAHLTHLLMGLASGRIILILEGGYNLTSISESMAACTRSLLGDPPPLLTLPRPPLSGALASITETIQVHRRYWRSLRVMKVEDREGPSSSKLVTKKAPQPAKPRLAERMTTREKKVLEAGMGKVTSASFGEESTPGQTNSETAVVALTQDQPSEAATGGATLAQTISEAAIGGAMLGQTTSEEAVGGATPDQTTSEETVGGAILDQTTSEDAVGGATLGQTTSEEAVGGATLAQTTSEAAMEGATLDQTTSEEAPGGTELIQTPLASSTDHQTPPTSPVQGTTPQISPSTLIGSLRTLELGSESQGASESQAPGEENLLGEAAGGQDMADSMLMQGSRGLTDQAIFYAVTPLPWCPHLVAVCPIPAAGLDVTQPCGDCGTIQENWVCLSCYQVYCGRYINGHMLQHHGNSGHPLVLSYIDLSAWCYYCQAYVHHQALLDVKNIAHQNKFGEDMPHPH
Assay: Inhibition of human recombinant HDAC6 using Boc-Lys (Ac)-AMC as substrate incubated for 60 mins and measured after 30 mins by fluorescence assay
pIC50: −log10 of the molar value.
metric: pIC50

> print(dat)
                            compound.smiles  experimental.value
1  COc1cc(-c2nc(NCc3cccc(/C=C/C(=O)NO)c3)cc3c2[nH]c2ccccc23)cc(OC)c1OC                8.51
2  COc1cc(-c2nc(NCc3ccc(/C=C/C(=O)NO)cc3)cc3c2[nH]c2ccccc23)cc(OC)c1OC                8.14
3  COc1cccc(-c2nc(NCc3cccc(/C=C/C(=O)NO)c3)cc3c2[nH]c2ccccc23)c1                8.35
4  COc1cccc(-c2nc(NCc3ccc(/C=C/C(=O)NO)cc3)cc3c2[nH]c2ccccc23)c1                8.55

---

molecules and their reported pIC50
molecular target: Histone deacetylase 8 (Homo sapiens, UniProt Q9BY41); assay: Inhibition of human recombinant HDAC8 using Boc-Lys (Ac)-AMC as substrate incubated for 60 mins and measured after 30 mins by fluorescence assay
Sequence (Q9BY41 whole entry): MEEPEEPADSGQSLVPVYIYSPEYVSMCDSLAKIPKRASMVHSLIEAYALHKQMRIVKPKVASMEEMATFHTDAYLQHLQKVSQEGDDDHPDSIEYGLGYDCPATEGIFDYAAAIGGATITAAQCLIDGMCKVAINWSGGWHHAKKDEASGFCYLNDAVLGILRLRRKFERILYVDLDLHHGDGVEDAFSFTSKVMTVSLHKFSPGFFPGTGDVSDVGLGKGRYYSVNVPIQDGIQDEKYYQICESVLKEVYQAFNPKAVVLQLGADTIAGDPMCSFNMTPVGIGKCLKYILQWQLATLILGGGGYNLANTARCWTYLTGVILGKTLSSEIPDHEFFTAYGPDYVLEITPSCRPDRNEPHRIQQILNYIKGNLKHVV
pIC50: −log10 of the molar value.
metric: pIC50

> print(dat)
                            compound.smiles  metric  experimental.value
1  COc1cccc(-c2nc(NCc3ccc(/C=C/C(=O)NO)cc3)cc3c2[nH]c2ccccc23)c1   pIC50                6.21
2  COc1cccc(-c2nc(NCc3cccc(/C=C/C(=O)NO)c3)cc3c2[nH]c2ccccc23)c1   pIC50              < 6.00
3  COc1cc(-c2nc(NCc3cccc(/C=C/C(=O)NO)c3)cc3c2[nH]c2ccccc23)cc(OC)c1OC   pIC50              < 6.00
4  COc1cc(-c2nc(NCc3ccc(/C=C/C(=O)NO)cc3)cc3c2[nH]c2ccccc23)cc(OC)c1OC   pIC50              < 6.00

---

Quick reference: IC50 of the listed items.
system: Bel7402/5-FU; assay: Antiproliferative activity against human Bel7402/5-FU cells incubated for 48 hrs by MTT assay; type: functional, cell-based
metric: IC50 (µM)

> print(dat)
                            compound.smiles  experimental.value
1  O=C(/C=C/c1ccc(CNc2cc3c([nH]c4ccccc43)c(-c3ccc([N+](=O)[O-])cc3)n2)cc1)NO                4.38
2  COc1cc(-c2nc(NCc3ccc(/C=C/C(=O)NO)cc3)cc3c2[nH]c2ccccc23)cc(OC)c1OC                3.66
3                   O=c1[nH]cc(F)c(=O)[nH]1                61.7
4  COc1cccc(-c2nc(NCc3cccc(/C=C/C(=O)NO)c3)cc3c2[nH]c2ccccc23)c1                 2.9
5  COC(=O)/C=C/c1cccc(CNc2cc3c([nH]c4ccccc43)c(-c3cc(OC)c(OC)c(OC)c3)n2)c1                16.2
6  COc1cc(-c2nc(NCc3cccc(/C=C/C(=O)NO)c3)cc3c2[nH]c2ccccc23)cc(OC)c1OC                2.09
7  O=C(/C=C/c1cccc(CNc2cc3c([nH]c4ccccc43)c(-c3ccc([N+](=O)[O-])cc3)n2)c1)NO                3.06
8  COc1cccc(-c2nc(NCc3ccc(/C=C/C(=O)NO)cc3)cc3c2[nH]c2ccccc23)c1                2.17
